- PROTOCOL_DESCRIPTION: Antiproliferative activity against human SKHEP1 cells after 3 days by sulforhodamine B assay
- Format: functional, cell-based
- EXPERIMENTAL_CONTEXT: SK-HEP1, 72 h
OBSERVABLE: IC50 (µM)
Numbers only here, please. The scale is µM.

- COMPOUND: "COc1cc([C@@H]2c3cc4c(cc3[C@@H](O[C@@H]3O[C@@H]5CO[C@@H](C)O[C@H]5[C@H](O)[C@H]3O)[C@H]3COC(=O)[C@H]23)OCO4)cc(OC)c1O [ETOPOSIDE]"
  VALUE: 1.1

Entry `CC(C)=C[C@H](C)C[C@H](C)/C=C(\C)C(=O)NC1=C[C@](O)(CCCCC(=O)O)[C@@H](O)CC1=O` ; IC50 = 32

Note to self: IC50 recorded for `CC(C)=C[C@H](C)C[C@H](C)/C=C/C(=O)NC1=C[C@](O)(CCCCC(=O)O)C=CC1=O` was 56

Record `CC(C)=C[C@H](C)C[C@H](C)/C=C/C(=O)NC1=C[C@](O)(CCCCC(=O)O)C=C(Cl)C1=O` . Reported IC50: 2.7

----------
- PROTOCOL_DESCRIPTION: Inhibition of porcine cerebral cortex Na+/K+ ATPase incubated at 37 degC for 30 mins using 3-O-methylfluorescein phosphate and […] by fluorometry
- Type: tissue-based, Sus scrofa
- EXPERIMENTAL_CONTEXT: read-out: IC50
OBSERVABLE: IC50 (µM)
// note: answer is a bare numeric in µM

- MOLECULE: "CC(C)=C[C@H](C)C[C@H](C)/C=C(\\C)C(=O)NC1=C[C@](O)(CCCCC(=O)O)[C@@H](O)CC1=O"
  VALUE: 30

// recorded IC50 for C[C@@H]1O[C@@H](O[C@H]2C[C@@H](O)[C@]3(CO)[C@H]4[C@H](O)C[C@]5(C)[C@@H](C6=CC(=O)OC6)CC[C@]5(O)[C@@H]4CC[C@]3(O)C2)[C@H](O)[C@H](O)[C@H]1O [OUABAIN] : 3.8

get_value(item= `CC(C)=C[C@H](C)C[C@H](C)/C=C/C(=O)NC1=C[C@](O)(CCCCC(=O)O)C=C(Cl)C1=O` , readout=IC50) returns 62
